Assay: Cytotoxicity against mouse RAW264.7 cells assessed as reduction in cell viability at 10 uM after 24 hrs by MTT assay
reported_property: reduction in viability at 24 h, 10 µM

Look over these answered cases.
[[record]]
compound_structure_string = "O=c1cc(-c2ccccc2)oc2c(-c3cccnc3)c(O)cc(O)c12"
reported_property = "reduction in viability at 24 h, 10 µM"
reported_result = "< 10%"

[[record]]
compound_structure_string = "O=c1cc(-c2ccccc2)oc2c(-c3ccoc3)c(O)cc(O)c12"
reported_property = "reduction in viability at 24 h, 10 µM"
reported_result = "< 10%"

[[record]]
compound_structure_string = "Cc1c(O)cc(O)c2c(=O)cc(-c3ccccc3)oc12"
reported_property = "reduction in viability at 24 h, 10 µM"
reported_result = "< 10%"


Reported reduction in viability at 24 h, 10 µM for `O=c1cc(-c2ccccc2)oc2c(-c3ccsc3)c(O)cc(O)c12` : what is it?
< 10%

Report reduction in viability at 24 h, 10 µM for `O=c1cc(-c2ccccc2)oc2c(-c3ccncc3)c(O)cc(O)c12` please.
< 10%

---

Biological target: UniProtKB P29477
Sequence (P29477 whole entry): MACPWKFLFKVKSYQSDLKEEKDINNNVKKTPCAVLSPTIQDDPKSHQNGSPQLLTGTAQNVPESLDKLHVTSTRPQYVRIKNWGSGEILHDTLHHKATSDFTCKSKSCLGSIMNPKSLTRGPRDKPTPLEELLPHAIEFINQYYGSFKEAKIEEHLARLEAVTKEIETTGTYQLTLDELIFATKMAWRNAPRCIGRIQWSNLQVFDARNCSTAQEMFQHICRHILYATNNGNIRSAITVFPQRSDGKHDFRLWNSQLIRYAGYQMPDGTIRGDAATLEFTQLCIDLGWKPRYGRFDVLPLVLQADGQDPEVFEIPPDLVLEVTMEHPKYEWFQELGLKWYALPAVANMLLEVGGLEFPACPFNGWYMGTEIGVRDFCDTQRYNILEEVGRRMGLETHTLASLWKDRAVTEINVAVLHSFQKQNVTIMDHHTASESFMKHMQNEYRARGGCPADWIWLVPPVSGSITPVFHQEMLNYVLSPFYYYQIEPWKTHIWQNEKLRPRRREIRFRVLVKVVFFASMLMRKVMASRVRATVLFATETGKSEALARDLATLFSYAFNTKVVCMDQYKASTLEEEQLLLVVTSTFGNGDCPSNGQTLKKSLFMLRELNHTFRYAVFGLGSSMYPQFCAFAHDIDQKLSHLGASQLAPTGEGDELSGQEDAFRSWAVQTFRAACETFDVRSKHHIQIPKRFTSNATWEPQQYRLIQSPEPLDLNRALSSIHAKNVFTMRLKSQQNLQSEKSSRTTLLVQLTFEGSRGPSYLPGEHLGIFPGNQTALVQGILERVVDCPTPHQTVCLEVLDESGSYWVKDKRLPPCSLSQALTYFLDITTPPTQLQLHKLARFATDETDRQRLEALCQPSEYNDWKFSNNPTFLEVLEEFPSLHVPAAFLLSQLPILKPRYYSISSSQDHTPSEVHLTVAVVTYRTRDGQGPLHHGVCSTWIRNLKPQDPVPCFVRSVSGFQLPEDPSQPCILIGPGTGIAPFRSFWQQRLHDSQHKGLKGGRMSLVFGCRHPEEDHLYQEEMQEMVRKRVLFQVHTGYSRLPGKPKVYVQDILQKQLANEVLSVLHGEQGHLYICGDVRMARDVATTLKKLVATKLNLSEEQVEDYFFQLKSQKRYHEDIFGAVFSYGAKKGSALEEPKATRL
Experiment: Inhibition of iNOS-mediated NO production in LPS-induced mouse RAW264.7 cells at 10 uM after 24 hrs by griess method
Assay type: cell-based
reported_property: inhibition
Reply with the number, then its unit.

Worked examples follow.
[[record]]
compound_structure_string = "O=c1cc(-c2ccccc2)oc2c(-c3ccncc3)c(O)cc(O)c12"
reported_result = "29.1%"

[[record]]
compound_structure_string = "O=c1cc(-c2ccccc2)oc2c(-c3cccnc3)c(O)cc(O)c12"
reported_result = "16.7%"

[[record]]
compound_structure_string = "Cc1c(O)cc(O)c2c(=O)cc(-c3ccccc3)oc12"
reported_result = "3.7%"

[[record]]
compound_structure_string = "O=c1cc(-c2ccccc2)oc2cc(O)cc(O)c12"
reported_result = "8.9%"

[[record]]
compound_structure_string = "O=c1cc(-c2ccccc2)oc2c(-c3ccoc3)c(O)cc(O)c12"
reported_result = "8.3%"


Switching to the query record.
UniProtKB P29477 / inhibition / `O=c1cc(-c2ccccc2)oc2c(-c3ccsc3)c(O)cc(O)c12` : value?
7.6%

Value source: ChEMBL document CHEMBL1828608
